biological target: T1, biotin-labeled human CD137 fused to human IgG1 Fc fragment (human, biotin-labeled); test: bead ELISA, IgG on biotin-human CD137-Fc on streptavidin beads, no free CD3e
T1 construct: Immobilised on streptavidin beads through biotin; also called human CD137-Fc; biotin-human CD137-Fc
T1 sequence (chain, as listed by the source limits assumed): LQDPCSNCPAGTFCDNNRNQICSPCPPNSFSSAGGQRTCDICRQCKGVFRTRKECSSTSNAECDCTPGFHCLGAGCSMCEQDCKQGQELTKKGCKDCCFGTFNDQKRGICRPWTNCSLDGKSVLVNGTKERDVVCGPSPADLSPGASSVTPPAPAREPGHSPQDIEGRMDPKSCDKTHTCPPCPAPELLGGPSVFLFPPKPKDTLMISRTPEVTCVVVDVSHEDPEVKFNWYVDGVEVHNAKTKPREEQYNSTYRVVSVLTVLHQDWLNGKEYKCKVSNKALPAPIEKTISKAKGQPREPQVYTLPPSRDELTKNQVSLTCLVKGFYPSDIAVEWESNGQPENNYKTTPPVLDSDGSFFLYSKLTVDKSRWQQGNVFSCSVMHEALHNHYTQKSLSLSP
assay.endpoint: ELISA signal, free CD3e 0 pmol/well
Answers are plain numbers.

>>> data_value("dBBDu174 (antibody, human IgG1, V domains shown, IgG: VH joined to human IgG1 CH1-Fc, GLS3000 as light chain) VH: QVQLVESGGGLVQPGRSLRLSCAASGFTFSSAWMHWVRQAPGKGLEWVAQIKDRASAYNAYYAESVKGRFTISRDDSKNSIYLQMNSLKTEDTAVYYCRYVHYPSYVSFLPYYGVDAWGQGTTVTVSS VL: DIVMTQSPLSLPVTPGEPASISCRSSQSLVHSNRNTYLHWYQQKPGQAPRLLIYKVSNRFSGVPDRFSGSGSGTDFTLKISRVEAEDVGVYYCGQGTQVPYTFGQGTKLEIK")
4800
>>> data_value("dBBDu186 (antibody, human IgG1, V domains shown, IgG: VH joined to human IgG1 CH1-Fc, GLS3000 as light chain) VH: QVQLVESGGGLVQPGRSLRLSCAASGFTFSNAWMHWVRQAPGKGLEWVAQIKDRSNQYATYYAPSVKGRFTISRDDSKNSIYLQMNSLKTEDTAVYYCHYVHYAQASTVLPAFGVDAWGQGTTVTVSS VL: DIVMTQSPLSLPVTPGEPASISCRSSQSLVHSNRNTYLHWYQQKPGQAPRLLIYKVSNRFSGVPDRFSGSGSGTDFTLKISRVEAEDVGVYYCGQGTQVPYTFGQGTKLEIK")
34800
>>> data_value("dBBDu121 (antibody, human IgG1, V domains shown, IgG: VH joined to human IgG1 CH1-Fc, GLS3000 as light chain; also called DXDU01_3_#094; DXDU01_3 #094) VH: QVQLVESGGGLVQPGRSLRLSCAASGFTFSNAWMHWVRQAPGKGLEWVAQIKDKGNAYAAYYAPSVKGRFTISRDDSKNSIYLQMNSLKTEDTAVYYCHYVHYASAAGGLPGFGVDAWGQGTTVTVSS VL: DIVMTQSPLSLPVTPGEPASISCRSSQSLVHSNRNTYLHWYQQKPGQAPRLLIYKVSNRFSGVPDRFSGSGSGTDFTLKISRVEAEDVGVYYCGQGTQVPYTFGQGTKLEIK")
3610
>>> data_value("dBBDu124 (antibody, human IgG1, V domains shown, IgG: VH joined to human IgG1 CH1-Fc, GLS3000 as light chain; also called DADU01_3_#002; DADU01_3 #002) VH: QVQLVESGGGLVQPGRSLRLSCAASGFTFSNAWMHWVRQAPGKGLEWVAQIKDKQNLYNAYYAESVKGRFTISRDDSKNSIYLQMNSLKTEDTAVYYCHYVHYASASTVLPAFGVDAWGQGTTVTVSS VL: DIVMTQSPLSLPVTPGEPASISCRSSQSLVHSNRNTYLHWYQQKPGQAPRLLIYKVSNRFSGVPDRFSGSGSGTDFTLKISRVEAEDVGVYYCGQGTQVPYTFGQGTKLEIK")
6620
>>> data_value("dBBDu183 (antibody, human IgG1, V domains shown, IgG: VH joined to human IgG1 CH1-Fc, GLS3000 as light chain) VH: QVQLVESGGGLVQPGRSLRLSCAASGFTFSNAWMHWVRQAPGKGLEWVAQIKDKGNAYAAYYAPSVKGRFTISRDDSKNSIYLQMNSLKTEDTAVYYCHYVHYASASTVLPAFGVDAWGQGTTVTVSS VL: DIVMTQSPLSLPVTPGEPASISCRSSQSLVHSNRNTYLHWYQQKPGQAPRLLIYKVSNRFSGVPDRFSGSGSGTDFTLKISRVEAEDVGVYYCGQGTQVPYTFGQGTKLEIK")
34000
>>> data_value("dBBDu189 (antibody, human IgG1, V domains shown, IgG: VH joined to human IgG1 CH1-Fc, GLS3000 as light chain) VH: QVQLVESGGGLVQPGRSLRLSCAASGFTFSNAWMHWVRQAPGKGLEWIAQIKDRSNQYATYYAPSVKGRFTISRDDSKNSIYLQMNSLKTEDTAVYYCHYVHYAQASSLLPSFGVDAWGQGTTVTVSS VL: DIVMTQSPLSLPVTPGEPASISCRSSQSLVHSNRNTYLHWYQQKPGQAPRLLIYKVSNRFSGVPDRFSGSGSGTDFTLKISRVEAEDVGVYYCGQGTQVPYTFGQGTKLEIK")
27400
>>> data_value("dBBDu202 (antibody, human IgG1, V domains shown, IgG: VH joined to human IgG1 CH1-Fc, GLS3000 as light chain) VH: QVQLVESGGGLVQPGRSLRLSCAASGFTFSNAWMHWVRQAPGKGLEWVAQIKDKGNAYAAYYAPSVKGRFTISRDDSKNSIYLQMNSLKTEDTAVYYCHYVHYSAASTVLPAFGVDAWGQGTTVTVSS VL: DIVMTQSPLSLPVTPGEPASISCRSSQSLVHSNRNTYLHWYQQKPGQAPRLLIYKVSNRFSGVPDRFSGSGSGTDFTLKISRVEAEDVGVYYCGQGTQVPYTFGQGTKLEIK")
12100
>>> data_value("dBBDu139 (antibody, human IgG1, V domains shown, IgG: VH joined to human IgG1 CH1-Fc, GLS3000 as light chain) VH: QVQLVESGGGLVQPGRSLRLSCAASGFTFSNAWMHWVRQAPGKGLEWVAQIKDRGNAYNAYYAESVKGRFTISRDDSKNSIYLQMNSLKTEDTAVYYCRFVHYRHPLLHIQYGVDAWGQGTTVTVSS VL: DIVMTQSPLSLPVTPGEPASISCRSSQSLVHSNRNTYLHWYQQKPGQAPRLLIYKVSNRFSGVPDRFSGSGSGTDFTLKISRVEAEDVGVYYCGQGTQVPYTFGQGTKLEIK")
9440
>>> data_value("dBBDu123 (antibody, human IgG1, V domains shown, IgG: VH joined to human IgG1 CH1-Fc, GLS3000 as light chain; also called DADU01_3_#018; DADU01_3 #018) VH: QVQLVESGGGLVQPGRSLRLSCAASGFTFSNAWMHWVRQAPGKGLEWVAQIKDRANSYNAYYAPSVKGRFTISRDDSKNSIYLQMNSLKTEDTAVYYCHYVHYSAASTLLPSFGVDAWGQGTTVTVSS VL: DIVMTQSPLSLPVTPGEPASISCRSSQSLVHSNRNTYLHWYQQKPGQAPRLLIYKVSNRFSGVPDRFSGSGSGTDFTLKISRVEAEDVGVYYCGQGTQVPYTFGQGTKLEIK")
2750

As a next step, examine the binder that follows.
// query Using known records, supply ELISA signal, free CD3e 0 pmol/well for dBBDu222 (antibody, human IgG1, V domains shown, IgG: VH joined to human IgG1 CH1-Fc, GLS3000 as light chain) VH: QVQLVESGGGLVQPGRSLRLSCAASGFTISSAWMHWVRQAPGKGLEWVAQIKDRANGYAAYYAPSVKGRFTISRDDSKNSIYLQMNSLKTEDTAVYYCRYVHYATAYDGFYGFGVDAWGQGTTVTVSS VL: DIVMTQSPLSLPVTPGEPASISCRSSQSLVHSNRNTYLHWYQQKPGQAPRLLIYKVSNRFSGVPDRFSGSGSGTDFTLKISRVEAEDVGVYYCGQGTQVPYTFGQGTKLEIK
// result 7190
